# target: SSTR2 (Homo sapiens, UniProt P30874)
# Sequence (P30874 whole entry): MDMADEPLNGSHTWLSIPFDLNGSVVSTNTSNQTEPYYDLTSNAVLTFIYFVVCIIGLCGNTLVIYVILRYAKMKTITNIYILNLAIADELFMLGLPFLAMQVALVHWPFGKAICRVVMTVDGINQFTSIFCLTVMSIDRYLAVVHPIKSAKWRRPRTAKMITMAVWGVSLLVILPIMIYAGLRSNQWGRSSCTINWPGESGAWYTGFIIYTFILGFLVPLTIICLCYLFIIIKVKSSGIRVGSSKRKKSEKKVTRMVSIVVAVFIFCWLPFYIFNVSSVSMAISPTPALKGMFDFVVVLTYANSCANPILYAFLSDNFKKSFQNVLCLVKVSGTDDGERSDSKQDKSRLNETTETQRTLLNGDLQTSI
# experimentDescription: SSTR binding affinity by radioligand binding competition assay ([125I]-Tyr11-Somatostatin, membrane extracts)
# conditionDescription: radioligand competition, [125I]-Tyr11-Somatostatin 0.1 nM, membrane extracts; Ki from IC50 by Cheng Prusoff; read-out: SSTR2 Ki
Numbered stars: 1 amine (or outer) side, 2 acyl side, 3 side chain; on linkers, the order of the positions; unused ones are H or OH. Square brackets hold non-standard residues; d marks the D form. Peptide text beside a SMILES is read from it. * marks the point of attachment. X12 = O=C1CN2CCN3CCN(CC(=O)N4CCC(CC(=O)*)CC4)CCN(CC2)CC(=O)[O][Lu]([O]1)[O]C(=O)C3; DOTA(Lu) = O=C1CN2CCN3CCN(CC(=O)*)CCN(CC2)CC(=O)[O][Lu]([O]1)[O]C(=O)C3; Ala(piperidin-4-yl) = O=C([C@H](CC1CCN([*:3])CC1)N[*:1])[*:2]; dTrp(βS-Me) = C[C@@H](c1c[nH]c2ccccc12)[C@@H](N)C(=O)O; N(6-aminohexyl)Gly = O=C(CN(CCCCCCN[*:3])[*:1])[*:2]; NMeK = CN[C@@H](CCCCN)C(=O)O
experimentalEndpoint: Ki

The cases that follow already have their Ki on record.
[
  {
    "molecule": "C[C@@H](O)[C@@H]1NC(=O)[C@H](CC2CCNCC2)NC(=O)[C@@H]([C@@H](C)c2c[nH]c3ccccc23)NC(=O)[C@H](Cc2ccc(O)cc2)NC(=O)[C@H](CCCCNC(=O)CC2CCN(C(=O)CN3CCN4CCN5CCN(CC3)CC(=O)[O][Lu]([O]C(=O)C5)[O]C(=O)C4)CC2)N(C)C(=O)[C@H](Cc2ccccc2)NC1=O [RB-0006458] (cyclo(F[NMeK](X12)Y[dTrp(βS-Me)][Ala(piperidin-4-yl)]T))",
    "measValue": "3.33 to 10 nM"
  },
  {
    "molecule": "C[C@@H](O)[C@@H]1NC(=O)[C@H](CC2CCNCC2)NC(=O)[C@@H]([C@@H](C)c2c[nH]c3ccccc23)NC(=O)[C@H](Cc2ccc(O)cc2)NC(=O)CN(CCCCCCNC(=O)CN2CCN3CCN4CCN(CC2)CC(=O)[O][Lu]([O]C(=O)C3)[O]C(=O)C4)C(=O)[C@H](Cc2ccccc2)NC1=O [RB-0006389] (cyclo(F[N(6-aminohexyl)Gly](DOTA(Lu))Y[dTrp(βS-Me)][Ala(piperidin-4-yl)]T))",
    "measValue": "< 1 nM"
  }
]

Consider now this further molecule.
-- ask State its Ki: C[C@@H](O)[C@@H]1NC(=O)[C@H](CCCCN)NC(=O)[C@@H](Cc2c[nH]c3ccccc23)NC(=O)[C@H](Cc2ccc(O)cc2)NC(=O)[C@H](CNC(=O)C[C@@H](NC(=O)CCCCCNC(=O)CN2CCN3CCN4CCN(CC2)CC(=O)[O][Lu]([O]C(=O)C3)[O]C(=O)C4)C(=O)O)N(C)C(=O)[C@H](Cc2ccccc2)NC1=O
-- reply 3.33 to 10 nM

###

# target: SSTR2 (Homo sapiens)
# experimentDescription: SSTR binding affinity by radioligand binding competition assay ([125I]-Tyr11-Somatostatin, membrane extracts)
# conditionDescription: radioligand competition, [125I]-Tyr11-Somatostatin 0.1 nM, membrane extracts; Ki from IC50 by Cheng Prusoff; read-out: SSTR2 Ki
pKi: −log10 of the molar value. Numbered stars: 1 amine (or outer) side, 2 acyl side, 3 side chain; on linkers, the order of the positions; unused ones are H or OH. Square brackets hold non-standard residues; d marks the D form. Side chains are listed from the residue outwards. Peptide text beside a SMILES is read from it. * marks the point of attachment. DOTA(Lu)NH(CH2)6NHCOCH2 = O=C(CN1CCN2CCN3CCN(CC1)CC(=O)[O][Lu]([O]C(=O)C2)[O]C(=O)C3)NCCCCCCNC(=O)C*; DOTA(Lu) = O=C1CN2CCN3CCN(CC(=O)*)CCN(CC2)CC(=O)[O][Lu]([O]1)[O]C(=O)C3; Ala(piperidin-4-yl) = O=C([C@H](CC1CCN([*:3])CC1)N[*:1])[*:2]; dTrp(βS-Me) = C[C@@H](c1c[nH]c2ccccc12)[C@@H](N)C(=O)O; Phe(3-CONH2) = NC(=O)c1cccc(C[C@H](N)C(=O)O)c1; X4 = C[C@@H](c1ccccc1)[C@H](N[*:1])C(=O)[*:2]; X25 = O=C([C@H](CC1CNC1)N[*:1])[*:2]; 4Pal = N[C@@H](Cc1ccncc1)C(=O)O; Cha = N[C@@H](CC1CCCCC1)C(=O)O; NMehCys = CN[C@@H](CCS)C(=O)O; NMeK = CN[C@@H](CCCCN)C(=O)O; Inp = O=C(O)C1CCNCC1
experimentalEndpoint: pKi

[
  {
    "compound": "C[C@@H](O)[C@@H]1NC(=O)[C@H](CC2CCNCC2)NC(=O)[C@@H]([C@@H](C)c2c[nH]c3ccccc23)NC(=O)[C@H](Cc2ccc(O)cc2)NC(=O)[C@H](CCCCNC(=O)C2CCN(C(=O)CN3CCN4CCN5CCN(CC3)CC(=O)[O][Lu]([O]C(=O)C5)[O]C(=O)C4)CC2)N(C)C(=O)[C@H](Cc2ccccc2)NC1=O [RB-0006452] (cyclo(F[NMeK]([Inp-DOTA(Lu)])Y[dTrp(βS-Me)][Ala(piperidin-4-yl)]T))",
    "pKi": "8.48 to 9.00"
  },
  {
    "compound": "CC(C)[C@@H]1NC(=O)[C@H](CCCCN)NC(=O)[C@@H](Cc2c[nH]c3ccccc23)NC(=O)[C@H](Cc2ccc(O)cc2)NC(=O)[C@H](CCSCC(=O)NCCCCCCNC(=O)CN2CCN3CCN4CCN(CC2)CC(=O)[O][Lu]([O]C(=O)C3)[O]C(=O)C4)N(C)C(=O)[C@H](CC(N)=O)NC1=O [RB-0005253] (cyclo(KVN[NMehCys](DOTA(Lu)NH(CH2)6NHCOCH2)Y[dW]))",
    "pKi": "8.00 to 8.48"
  },
  {
    "compound": "C[C@@H](O)[C@@H]1NC(=O)[C@H](CCCCN)NC(=O)[C@@H](Cc2c[nH]c3ccccc23)NC(=O)[C@H](Cc2ccc(O)cc2)NC(=O)[C@H](CCSCC(=O)NCCCCCCNC(=O)CN2CCN3CCN4CCN(CC2)CC(=O)[O][Lu]([O]C(=O)C3)[O]C(=O)C4)N(C)C(=O)[C@H](Cc2cccc(C(N)=O)c2)NC1=O [RB-0003306] (cyclo(KT[Phe(3-CONH2)][NMehCys](DOTA(Lu)NH(CH2)6NHCOCH2)Y[dW]))",
    "pKi": "8.48 to 9.00"
  },
  {
    "compound": "C[C@@H](O)[C@@H]1NC(=O)[C@H](CCCCN)NC(=O)[C@@H](Cc2c[nH]c3ccccc23)NC(=O)[C@H](Cc2ccncc2)NC(=O)[C@H](CCSCC(=O)NCCCCCCNC(=O)CN2CCN3CCN4CCN(CC2)CC(=O)[O][Lu]([O]C(=O)C3)[O]C(=O)C4)N(C)C(=O)[C@H]([C@@H](C)c2ccccc2)NC1=O [RB-0003447] (cyclo([4Pal][dW]KT[X4][NMehCys](DOTA(Lu)NH(CH2)6NHCOCH2)))",
    "pKi": "8.00 to 8.48"
  },
  {
    "compound": "C[C@@H](O)[C@@H]1NC(=O)[C@H](CC2CNC2)NC(=O)[C@@H](Cc2c[nH]c3ccccc23)NC(=O)[C@H](Cc2ccc(O)cc2)NC(=O)[C@H](CCSCC(=O)NCCCCCCNC(=O)CN2CCN3CCN4CCN(CC2)CC(=O)[O][Lu]([O]C(=O)C3)[O]C(=O)C4)N(C)C(=O)[C@H](Cc2ccccc2)NC1=O [RB-0004866] (cyclo(F[NMehCys](DOTA(Lu)NH(CH2)6NHCOCH2)Y[dW][X25]T))",
    "pKi": "7.48 to 8.00"
  }
]

-- ask For the compound C[C@@H](O)[C@@H]1NC(=O)[C@H](CC2CCNCC2)NC(=O)[C@@H](Cc2c[nH]c3ccccc23)NC(=O)[C@H](Cc2ccc(O)cc2)NC(=O)[C@H](CCSCC(=O)NCCCCCCNC(=O)CN2CCN3CCN4CCN(CC2)CC(=O)[O][Lu]([O]C(=O)C3)[O]C(=O)C4)N(C)C(=O)[C@H](Cc2ccccc2)NC1=O [RB-0004864] (cyclo(F[NMehCys](DOTA(Lu)NH(CH2)6NHCOCH2)Y[dW][Ala(piperidin-4-yl)]T)) , report pKi.
-- reply 8.48 to 9.00

-- ask State, in one line, measured pKi of C[C@@H](O)[C@@H]1NC(=O)[C@H](CC2CCNCC2)NC(=O)[C@@H]([C@@H](C)c2c[nH]c3ccccc23)NC(=O)[C@H](Cc2ccc(O)cc2)NC(=O)[C@H](CCCCNC(=O)CN2CCN3CCN4CCN(CC2)CC(=O)[O][Lu]([O]C(=O)C3)[O]C(=O)C4)N(C)C(=O)[C@H](CC2CCCCC2)NC1=O [RB-0006162] (cyclo([Cha][NMeK](DOTA(Lu))Y[dTrp(βS-Me)][Ala(piperidin-4-yl)]T))
-- reply 8.48 to 9.00
